So I've got a bunch of compounds here, and I need their TGI values.
# Test system: CAKI-1 renal
# ASSAY_COMMENT: NCI tumour cell line growth inhibition, 48 h

Reference set (2 entries):
>>> observed_measurement("CN(Cc1c2ccccc2cc2ccccc12)S(=O)(=O)c1ccc(-c2c3nc(c(-c4ccc(S(=O)(=O)N(C)Cc5c6ccccc6cc6ccccc56)cc4)c4ccc([nH]4)c(-c4ccc(S(=O)(=O)N(C)Cc5c6ccccc6cc6ccccc56)cc4)c4nc(c(-c5ccc(S(=O)(=O)N(C)Cc6c7ccccc7cc7ccccc67)cc5)c5ccc2[nH]5)C=C4)C=C3)cc1")
"> 100 µM"
>>> observed_measurement("CC(=O)Nc1ccc(S(=O)(=O)Nc2nnc(S(N)(=O)=O)s2)cc1")
"> 100 µM"

Could you report TGI for every entry in the following list?
1. CC(C)OC(=O)c1ccc(NCC2=CC(=O)C=CC2=O)cc1Cl
2. [N-]=[N+]=Nc1ccc(S(=O)(=O)Oc2cc(OS(=O)(=O)c3ccc(N=[N+]=[N-])cc3)cc(OS(=O)(=O)c3ccc(N=[N+]=[N-])cc3)c2)cc1
3. COc1ccc(C(=O)/C=C/c2ccc(Cl)cc2)cc1S(N)(=O)=O
4. CC1=NN(c2cccc(Cl)c2)C2(C1)C(Cl)C(=O)N2c1nc2ccccc2s1 (centres undefined)
5. CN(C(=O)C12C3C4(C(=O)O)C1(C(=O)N(C)C(C)(C)C)C1C2(C(=O)O)C3(C(=O)N(C)C(C)(C)C)C14C(=O)N(C)C(C)(C)C)C(C)(C)C (centres undefined)
6. COc1cc([C@@H]2c3cc4c(cc3[C@H](OC3OC5COC(c6ccccc6)OC5C(O)C3O)[C@H]3COC(=O)[C@H]23)OCO4)cc(OC)c1OC (some centres undefined)
7. COc1ccc(CN(O)C2C(CO)OC(n3cc(I)c(=O)[nH]c3=O)C2O)cc1 (centres undefined)
8. CCOP1(=O)OCC2OC(n3cnc4c(N)ncnc43)C(O)C2O1 (centres undefined)

1: 6.19 µM; 2: > 10 µM; 3: 10.6 µM; 4: > 100 µM; 5: > 100 µM; 6: 22.2 µM; 7: > 100 µM; 8: > 100 µM

Provide reported TGI for each item, in the same order as listed.
1. COc1ccc(C(=O)c2cc3c(N)c(C(=O)Nc4cccc(Cl)c4)sc3nc2C)cc1
2. COc1ccc(/C=N\N2CC(=O)N3C4C=CC(CC4)N3C2=O)cc1 (centres undefined)
3. COc1cc2c(cc1OCCCC(=O)Nc1cc(C(=O)Nc3cc(C(=O)Nc4cc(C(=O)NCCCN(C)C)n(C)c4)n(C)c3)n(C)c1)N=C[C@@H]1CCCN1C2=O
4. CN(C)CCCn1c(Cc2ccccc2)nc2cc(C(F)(F)F)ccc21
5. Cc1c(-c2ccccc2)c(C#N)c2nnn(-c3ccccc3)c(=O)n12
6. Nn1c(Cc2ccc(Cl)cc2)n[nH]c1=O

1: > 33.3 µM; 2: > 100 µM; 3: 1.26 µM; 4: 51.1 µM; 5: > 100 µM; 6: > 100 µM

Give measured TGI for every item shown.
1. COc1c2occc2c(OC)c2c(=O)c(S(=O)(=O)NC(=O)Nc3ccc(Cl)cc3)coc12
2. Cc1c2c(n3c(nc4ccccc43)c1C#N)SCC2
3. c1ccc([CH2][Sn]([CH2]c2ccccc2)([S]c2cccc3cccnc23)[S]c2cccc3cccnc23)cc1

> 10 µM
> 10 µM
1.02 µM
